# testTarget: HER2 expressed on the surface of cells (human, UniProt P04626 23-1255)
# assayProtocol: cell-based or functional assay
readoutType: growth inhibition span (percentage of cells killed), SKBR3 cells (%)
Answers are plain numbers, in %.

Answered cases to consult:
| binder | result |
| --- | --- |
| Variant 14022 (antibody, name in Kabat numbering, V domains shown, also called v14022) VH: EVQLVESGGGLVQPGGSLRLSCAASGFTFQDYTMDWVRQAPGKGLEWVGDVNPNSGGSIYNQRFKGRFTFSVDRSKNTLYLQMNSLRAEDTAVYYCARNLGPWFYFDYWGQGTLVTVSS VL: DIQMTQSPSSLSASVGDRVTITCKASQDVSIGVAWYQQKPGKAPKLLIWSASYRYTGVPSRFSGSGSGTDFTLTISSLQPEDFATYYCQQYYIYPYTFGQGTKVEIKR | 26 |
| Variant 12471 (antibody, human IgG1, kappa, name in Kabat numbering, V domains shown, Kabat numbering; also called v12471; FSA version of v9996) VH: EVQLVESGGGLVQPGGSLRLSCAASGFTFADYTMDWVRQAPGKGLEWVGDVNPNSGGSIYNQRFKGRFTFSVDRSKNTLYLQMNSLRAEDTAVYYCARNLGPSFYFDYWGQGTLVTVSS VL: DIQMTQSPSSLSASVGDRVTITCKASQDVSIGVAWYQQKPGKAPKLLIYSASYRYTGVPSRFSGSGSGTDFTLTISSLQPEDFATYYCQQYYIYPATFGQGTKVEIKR | 22 |
| Variant 14018 (antibody, name in Kabat numbering, V domains shown, also called v14018) VH: EVQLVESGGGLVQPGGSLRLSCAASGFTFTDYTMDWVRQAPGKGLEWVGDVNPNSGGSIYNQRFKGRFTFSVDRSWNTLYLQMNSLRAEDTAVYYCARNLGPSFYFDYWGQGTLVTVSS VL: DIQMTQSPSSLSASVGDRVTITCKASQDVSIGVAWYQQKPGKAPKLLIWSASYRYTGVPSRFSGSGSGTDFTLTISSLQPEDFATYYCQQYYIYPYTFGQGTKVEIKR | 29 |
| Variant 14019 (antibody, name in Kabat numbering, V domains shown, also called v14019) VH: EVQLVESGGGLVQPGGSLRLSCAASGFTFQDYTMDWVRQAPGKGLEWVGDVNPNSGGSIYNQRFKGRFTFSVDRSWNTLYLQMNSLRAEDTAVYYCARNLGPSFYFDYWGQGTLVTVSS VL: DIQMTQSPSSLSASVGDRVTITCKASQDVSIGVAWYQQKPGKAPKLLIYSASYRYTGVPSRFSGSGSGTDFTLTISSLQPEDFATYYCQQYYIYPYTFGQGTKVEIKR | 25 |
| Variant 14023 (antibody, name in Kabat numbering, V domains shown, also called v14023) VH: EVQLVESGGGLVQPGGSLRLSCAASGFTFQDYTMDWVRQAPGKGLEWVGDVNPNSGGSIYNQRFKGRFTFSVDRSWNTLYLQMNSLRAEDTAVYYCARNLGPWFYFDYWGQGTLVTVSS VL: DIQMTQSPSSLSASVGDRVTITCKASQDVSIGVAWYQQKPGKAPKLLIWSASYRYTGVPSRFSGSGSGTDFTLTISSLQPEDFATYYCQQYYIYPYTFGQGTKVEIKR | 32 |
| Variant 14020 (antibody, name in Kabat numbering, V domains shown, also called v14020) VH: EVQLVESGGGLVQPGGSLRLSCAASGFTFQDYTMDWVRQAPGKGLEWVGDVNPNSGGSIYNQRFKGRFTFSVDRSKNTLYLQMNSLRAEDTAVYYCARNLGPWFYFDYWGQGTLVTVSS VL: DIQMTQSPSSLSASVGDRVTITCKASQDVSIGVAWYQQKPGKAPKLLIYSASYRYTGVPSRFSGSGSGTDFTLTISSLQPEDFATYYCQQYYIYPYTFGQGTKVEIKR | 26 |

Continue with the binder presented below.
**Query** Given the entry Variant 14021 (antibody, name in Kabat numbering, V domains shown, also called v14021) VH: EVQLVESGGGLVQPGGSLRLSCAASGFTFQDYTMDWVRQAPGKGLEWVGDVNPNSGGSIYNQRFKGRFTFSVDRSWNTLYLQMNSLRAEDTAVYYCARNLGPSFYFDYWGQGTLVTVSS VL: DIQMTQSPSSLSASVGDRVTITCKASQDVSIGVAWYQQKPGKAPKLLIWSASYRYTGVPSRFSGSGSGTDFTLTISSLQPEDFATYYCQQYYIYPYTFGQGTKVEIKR , report its measured growth inhibition span (percentage of cells killed), SKBR3 cells.
**Result** 31
